# Target entity: T1, human transglutaminase type 2 (TG2) (human, UniProt P21980 1-687)
# T1 construct: Recombinant full-length human TG2 (Zedira; cat; T002 in the Biacore work); Also used here for the endogenous TG2 of HepG2 lysate and HK-2 cells; also called hTG2; rhTG2
# T1 sequence: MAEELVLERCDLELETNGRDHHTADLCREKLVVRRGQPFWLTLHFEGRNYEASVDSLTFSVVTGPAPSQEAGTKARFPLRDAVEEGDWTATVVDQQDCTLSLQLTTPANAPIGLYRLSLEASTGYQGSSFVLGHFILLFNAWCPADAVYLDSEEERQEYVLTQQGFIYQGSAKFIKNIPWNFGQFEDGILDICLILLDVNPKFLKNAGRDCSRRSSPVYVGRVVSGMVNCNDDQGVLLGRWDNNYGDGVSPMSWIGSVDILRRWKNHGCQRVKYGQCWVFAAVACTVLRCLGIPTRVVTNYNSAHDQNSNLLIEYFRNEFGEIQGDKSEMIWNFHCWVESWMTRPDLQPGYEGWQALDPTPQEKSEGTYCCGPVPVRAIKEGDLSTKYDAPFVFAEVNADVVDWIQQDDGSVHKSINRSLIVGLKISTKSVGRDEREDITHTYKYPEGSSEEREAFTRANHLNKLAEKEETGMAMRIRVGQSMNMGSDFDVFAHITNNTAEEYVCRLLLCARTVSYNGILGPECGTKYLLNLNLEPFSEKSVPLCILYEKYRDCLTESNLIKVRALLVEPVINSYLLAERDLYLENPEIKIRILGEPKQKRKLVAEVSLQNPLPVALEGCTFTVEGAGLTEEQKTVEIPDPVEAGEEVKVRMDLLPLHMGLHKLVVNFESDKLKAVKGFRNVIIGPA
# Experimental details: SPR (Biacore T200), antibody captured on anti-human IgG1 Fc chip, TG2 injected; calcium condition not marked in the row

{"columns": ["Binder", "kon (M⁻¹ s⁻¹)"],
 "data": [
  ["hBB001BB humanised BB7 antibody (antibody, V domains shown, BB is read as heavy chain hBB001HB (BB7_RHB) with kappa chain hBB001KB (BB7_RKB)) VH: EVQLLESGGGLVQPGGSLRLSCAASGIIFSSSAMSWVRQAPGKGLEWVATISSGGRSTYYPDSVKGRFTVSRDSSKNTLYLQMNSLRAEDTAVYYCAKLISPYWGQGTLVTVSS VL: DIKMTQSPSSLSASVGDRVTITCKASQDINSYLTWFQQKPGKAPKTLIYLTNRLMDGVPSRFSGSGSGQEFLLTISSLQPEDFATYYCLQYVDFPYTFGQGTKVEIK", 240000],
  ["hAB004 (hAB001AE) humanised AB1 antibody (antibody, V domains shown, they were captured by anti-human IgG1 (Fc); also called Heavy Chain version RHA with Light Chain version RKE) VH: EVQLLESGGGLVQPGGSLRLSCAASGFTFSSSAMSWVRQAPGKGLEWVSTISVGGGKTYYPDSVKGRFTISRDNSKNTLYLQMNSLRAEDTAVYYCAKLISLYWGQGTLVTVSS VL: EIVLTQSPSSLSASVGDRVTITCKASQDINSYLTWYQQKPGKAPKLLIYRTNRLFDGVPSRFSGSGSGTDFFFTISSLQPEDFGTYYCLQYDDFPYTFGGGTKLEIK", 200000],
  ["hBB001AA humanised BB7 antibody (antibody, V domains shown, captured by anti-human IgG1 (Fc); also called hBB01AA) VH: EVQLLESGGGLVQPGGSLRLSCAASGFTFSSSAMSWVRQAPGKGLEWVSTISSGGRSTYYPDSVKGRFTISRDNSKNTLYLQMNSLRAEDTAVYYCAKLISPYWGQGTLVTVSS VL: DIQMTQSPSSLSASVGDRVTITCKASQDINSYLTWFQQKPGKAPKSLIYLTNRLMDGVPSRFSGSGSGTDFFLTISSLQPEDFATYYCLQYVDFPYTFGQGTKVEIK", 270000]
]}
